Provenance of the data: BigSolDB 2.1

- Run Conditions: in water, 313.15 K
Metric: solubility (mole fraction)

>  <Compound>
O=C(O)CC(O)C(=O)O (configuration not stated)

>  <solubility (mole fraction)>
0.198

$$$$
>  <Compound>
O=C(O)/C=C\C(=O)O

>  <solubility (mole fraction)>
0.154

$$$$

====

- Run Conditions: in water, 303.15 K
Metric: solubility (mole fraction)

>  <Compound>
O=C(O)CC(O)C(=O)O (configuration not stated)

>  <Metric>
solubility (mole fraction)

>  <Numeric Value>
0.168

$$$$
>  <Compound>
O=C(O)/C=C\C(=O)O

>  <Metric>
solubility (mole fraction)

>  <Numeric Value>
0.124

$$$$
